Target: bromodomain protein BRD4 BD2 (Homo sapiens, UniProt O60885)
Construct: The proteins BRD4 BD1/BD2 used in the experiment were purchased from Active Motif Company (Cat. No. 31380/31446); purchased Active Motif 31446
Experiment: HTRF in vitro assay, inhibitory activity against BRD4 BD2
Format: binding
Details: BRD4(2) 30 nM in final system
attributeMeasured: IC50

Determine from records and report IC50 for Cn1cc2c(Cc3ccccc3)cn(C)c(=O)c2c1 [Compound A2]
10 to 100 nM

Determine from records and report IC50 for Cn1cc(C(CCO)c2ccccn2)c2cc(C(=O)NC3CC3)[nH]c2c1=O (centres unmarked) [Compound A9]
10 to 100 nM

Determine from records and report IC50 for CC(c1ccccc1)c1cn(C)c(=O)c2[nH]c(C(=O)Nc3cnn(C)c3)cc12 (centres unmarked) [Compound A12]
≤ 10 nM

Determine from records and report IC50 for CCNC(=O)c1cc2c(-c3nc4ncccc4n3-c3cc(C)c(F)c(C)c3)cn(C)c(=O)c2[nH]1 [Compound A30]
≤ 10 nM

Determine from records and report IC50 for CC(c1ccccc1)c1cn(C)c(=O)c2c(NC(=O)OC(C)(C)C)c(-c3cnn(C)c3)oc12 (centres unmarked) [Compound A61]
≤ 10 nM

Determine from records and report IC50 for CC(c1ccccc1)c1cn(C)c(=O)c2[nH]c(-c3cn[nH]c3)cc12 (centres unmarked) [Compound A15]
≤ 10 nM

New cases:
Determine from records and report IC50 for CCNC(=O)c1cc2c(-c3cc(C(C)(C)O)c4cccnc4c3C)cn(C)c(=O)c2[nH]1 [Compound A40]
≤ 10 nM

Determine from records and report IC50 for CCNC(=O)c1cc2c(-c3c(C4CC4)nn(C)c3C3CC3)cn(C)c(=O)c2[nH]1 [Compound A34]
10 to 100 nM

Determine from records and report IC50 for COC(c1ccccc1)c1cn(C)c(=O)c2[nH]c(-c3cnn(C)c3)cc12 (centres unmarked) [Compound A43]
10 to 100 nM

Determine from records and report IC50 for CC(c1ccccc1)c1cn(C)c(=O)c2[nH]c(-c3ccoc3)cc12 (centres unmarked) [Compound A46]
≤ 10 nM

Determine from records and report IC50 for CC(c1ccc2ccccc2c1)c1cn(C)c(=O)c2[nH]c(C(=O)Nc3cnn(C)c3)cc12 (centres unmarked) [Compound A13]
≤ 10 nM

* * *

Target: bromodomain protein BRD4 BD2 (Homo sapiens, UniProt O60885)
Construct: The proteins BRD4 BD1/BD2 used in the experiment were purchased from Active Motif Company (Cat. No. 31380/31446)
Assay: HTRF in vitro assay, inhibitory activity against BRD4 BD2
Settings: BRD4(2) 30 nM in final system
attributeMeasured: IC50

Observe how each entry below is paired with its result.
Determine from records and report IC50 for CC(c1ccccc1)c1cn(C)c(=O)c2[nH]c(-c3ccnc(C(F)(F)F)c3)cc12 (stereo not shown)
10 to 100 nM

Determine from records and report IC50 for CC(c1ccccc1)c1cn(C)c(=O)c2[nH]c(-c3cnn(C)c3)cc12 (stereo not shown)
≤ 10 nM

Determine from records and report IC50 for CCNC(=O)c1cc2c(-c3cn(C)nc3C(C)c3ccccc3)cn(C)c(=O)c2[nH]1 (stereo not shown)
10 to 100 nM

In the following, a different molecule is considered.
Determine from records and report IC50 for COc1ccc(C(c2ccccc2)c2cn(C)c(=O)c3[nH]c(C(=O)Nc4cnn(C)c4)cc23)cc1 (stereo not shown)
10 to 100 nM

* * *

Target: bromodomain protein BRD4 BD2 (Homo sapiens, UniProt O60885)
Construct: The proteins BRD4 BD1/BD2 used in the experiment were purchased from Active Motif Company (Cat. No. 31380/31446)
Test: HTRF in vitro assay, inhibitory activity against BRD4 BD2
Conditions: BRD4(2) 30 nM in final system
attributeMeasured: IC50

Observe how each entry below is paired with its result.
Determine from records and report IC50 for Cn1cc(Oc2ccccc2)c2cc(-c3cnn(C4COC4)c3)[nH]c2c1=O
10 to 100 nM

Determine from records and report IC50 for CCNC(=O)c1cc2c(-c3c(C(=O)NCC)cnn3C(C)c3ccccc3)cn(C)c(=O)c2[nH]1 (stereo not drawn)
10 to 100 nM

Determine from records and report IC50 for Cn1cc(C(CO)c2ccccc2)c2cc(-c3cnn(C4COC4)c3)[nH]c2c1=O (stereo not drawn)
10 to 100 nM

New cases:
Determine from records and report IC50 for Cc1ccc(-n2c(-c3cn(C)c(=O)c4[nH]c(-c5cnn(C)c5)cc34)nc3ncccc32)cc1
10 to 100 nM

Determine from records and report IC50 for CCNC(=O)n1cc2c(C(OC)c3ccccc3)cn(C)c(=O)c2c1 (stereo not drawn)
10 to 100 nM

Determine from records and report IC50 for CCNC(=O)c1cc2c(-c3cc(CO)c4ccccc4c3C3CC3)cn(C)c(=O)c2[nH]1
≤ 10 nM

Determine from records and report IC50 for CC(c1ccc(N2CCN(C)CC2)cc1)c1cn(C)c(=O)c2[nH]c(-c3cnn(C4COC4)c3)cc12 (stereo not drawn)
10 to 100 nM

Determine from records and report IC50 for CC(c1cccc(Cl)c1F)c1cn(C)c(=O)c2[nH]c(-c3cnn(C4COC4)c3)cc12 (stereo not drawn)
≤ 10 nM

Determine from records and report IC50 for CC(c1ccc(Cl)cc1)c1cn(C)c(=O)c2[nH]c(C(=O)Nc3cnn(C)c3)cc12 (stereo not drawn)
10 to 100 nM
